system: 429239-143-T-J1-PDC complex spheroid viability; assay: Anticancer human tumor 429239-143-T-J1-PDC patient-derived small cell lung carcinoma cell line growth inhibition [POLQ]; conditions: second compound 1 µM; first compound 0.316 µM; active compounds read low;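 also: luminescence signal used as surrogate measure of viable cells; spheroids exposed to compounds for seven days before readout; 100% = DMSO vehicle control viability as luminescence relative to vehicle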
PROPERTY NAME: viability, T/C (%)
Give bare numbers, in %.

>>> readout_value("COc1cccc(OCCCN)c1-c1cc(Nc2cnc(C#N)cn2)n[nH]1 + Cc1cccc(N(C)C(=O)C2C(O)CCN2c2nc(C)cc(C(F)(F)F)c2C#N)c1")
46.5

// input: 2 molecules below; output: viability, T/C for each
1. CCCS(=O)(=O)Nc1ccc(F)c(C(=O)c2c[nH]c3ncc(-c4ccc(Cl)cc4)cc23)c1F + Cc1cccc(N(C)C(=O)C2C(O)CCN2c2nc(C)cc(C(F)(F)F)c2C#N)c1
2. COc1cc(C2c3cc4c(cc3C(OC3OC5COC(C)OC5C(O)C3O)C3COC(=O)C23)OCO4)cc(OC)c1O (stereo not drawn) + Nc1ccc(C#CCN(C(=O)Cc2ncc(C(F)(F)F)cc2C(F)(F)F)c2ccc(F)cc2)nn1

1. 92.3
2. 68.5
